Attribution: ChEMBL document CHEMBL3526011

# Test Details: Half life in rat hepatocytes
# Format: ADME, cell-based, Hepatocyte
Property Label: half-life (min)

[
  {
    "Compound": "N[C@@H](CCC(=O)N[C@@H](CSC(=O)Cc1ccccc1Nc1c(Cl)cccc1Cl)C(=O)NCC(=O)O)C(=O)O",
    "Property Label": "half-life",
    "Recorded Number": 1
  }
]

1 = Cc1cc(CC(=O)SC[C@H](NC(=O)CC[C@H](N)C(=O)O)C(=O)NCC(=O)O)n(C)c1C(=O)c1ccc(Cl)cc1
2 = CC(C)Cc1ccc(C(C)C(=O)SC[C@H](NC(=O)CC[C@H](N)C(=O)O)C(=O)NCC(=O)O)cc1 (stereo partly drawn)
-- ask Kindly compare 1 with 2 and tell me which has the lower half-life figure. Bench note: the answer is the label of the chosen record.
-- reply 1
